Reported IC50 values for the following compounds.
Target: human ENPP2 (Homo sapiens (Human), UniProt Q13822)
Experiment: Inhibitory activity on human ENPP2 (FS-3 assay)
Assay type: biochemical
Conditions: FS-3 assay, same process as Test example 1; read-out: Enzymatic assay (IC50) FS-3

Record excerpt, results attached:
[[record]]
record_smiles = "O=C(Cn1cc(-c2cnc(NC3Cc4ccccc4C3)nc2)c(-c2ccccn2)n1)N1CCc2[nH]nnc2C1"
result = "< 1.56 nM"

[[record]]
record_smiles = "O=C(CO)N1CCC(c2nn(CC(=O)N3CCc4[nH]nnc4C3)cc2-c2cnc(NC3Cc4ccccc4C3)nc2)CC1"
result = "< 1.56 nM"


As a next step, examine the compound that follows.
Record `O=C(O)c1ccc(-c2nn(CC(=O)N3CCc4[nH]nnc4C3)cc2-c2cnc(NC3Cc4ccccc4C3)nc2)cc1` , field IC50: < 1.56 nM

====

Reported pIC50 values for the following compounds.
Target: human ENPP2 (Homo sapiens (Human))
Test: Inhibitory activity on human ENPP2 (FS-3 assay)
Format: biochemical
Conditions: human ENPP2, FS-3 substrate, 30 min at 37° C.; read-out: IC50
Reminder that pIC50 means the negative base-10 logarithm of the concentration expressed in mol/L.

Record excerpt, results attached:
[[record]]
record_smiles = "O=C(Cc1nnc(-c2cnc(NC3Cc4ccccc4C3)nc2)o1)N1CCc2[nH]nnc2C1"
quantitative_readout = 8.62

[[record]]
record_smiles = "O=C(Cn1cc(-c2cnc(NC3Cc4ccccc4C3)nc2)c(CN2CCN(CC(F)F)CC2)n1)N1CCc2[nH]nnc2C1"
quantitative_readout = 8.64

[[record]]
record_smiles = "CC(C)(CN1CCc2[nH]nnc2C1)C(=O)N1CCN(c2cnc(NC3Cc4ccccc4C3)nc2)CC1"
quantitative_readout = 8.51


Record `O=C(CCN1CCc2[nH]nnc2C1)N1CCC(c2cnc(NC3Cc4ccccc4C3)nc2)CC1` , field pIC50: 8.62

Record `CCN1CCN(Cc2nn(CC(=O)N3CCc4[nH]nnc4C3)cc2-c2cnc(NC3Cc4ccccc4C3)nc2)CC1` , field pIC50: 8.62
